Provenance of the data: ChEMBL document CHEMBL3822409

assay: Selectivity index, ratio of CC50 for human THP1 cells to MIC for dormant stage of Mycobacterium bovis BCG ATCC 35734; type: toxicity, cell-based, THP-1; settings: read-out: Selectivity Index
// values below are reported selectivity ratio
Answer with a number only.

Below are worked cases with known answers.
Cc1nc(-c2cccnc2)sc1-c1nnc(Cc2ccccc2)o1 :: 10
Cc1nc(-c2cccnc2)sc1-c1nnc(-c2ccncc2)o1 :: 2
CO[C@H]1/C=C/O[C@@]2(C)Oc3c(C)c(O)c4c(O)c(c(/C=N/N5CCN(C)CC5)c(O)c4c3C2=O)NC(=O)/C(C)=C\C=C\[C@H](C)[C@H](O)[C@@H](C)[C@@H](O)[C@@H](C)[C@H](OC(C)=O)[C@@H]1C :: 714

Qu. Quick check: selectivity ratio of Cc1nc(-c2cccnc2)sc1-c1nnc(-c2ccc([N+](=O)[O-])cc2)o1 ?
Ans. 3
